# %Inh per record follows
- Tested on: PFTK1
- Construct: gene CDK14
- TEST_CONTEXT: concentration: 1 μM, replicates: in singlicate; n = 1;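 further: KINOMEscan kinase panel screen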
// note: answer is a bare numeric in %

Cc1cc(Nc2nc(-c3cccc(C)n3)nc3ccccc23)ccn1	10
Nc1ncnc2c1ncn2-c1cccc2ccccc12	1
CN(C)c1cc(-c2ccc3c(N)n[nH]c3c2)nc(N)n1	11
Cn1c(=O)c(F)c(Nc2ccc(I)cc2F)c2c(=O)n(OC[C@H](O)CO)cnc21	0

Entry `CCC(=O)c1c(-c2ccccc2)c2cc(Cl)ccc2c(=O)n1Cc1cc(S(C)(=O)=O)n(CC(N)=O)n1` , PFTK1 data, %Inh value: 11

Entry `CC(C)(C)c1ccc(C(=O)Nc2cn3cc(-c4ccccc4)ccc3n2)cc1` , PFTK1 data, %Inh value: 0

Entry `Cc1nnc(-c2ccc(C)c(-c3ccc(C(=O)O)cc3)c2)o1` , PFTK1 data, %Inh value: 0

Entry COc1cc(Nc2nccc(N3CCC(NC(=O)C(C)c4ccc(Cl)cc4)C3)n2)cc(OC)c1OC (stereo not drawn) , PFTK1 data, %Inh value: 6

Entry `COc1ccc(-c2coc3ccc(-c4nnc(SCc5cccc(C#N)c5)o4)cc23)cc1` , PFTK1 data, %Inh value: 1

###

- Test system: CDK4
- TEST_CONTEXT: concentration: 1 μM, replicates: in singlicate; n = 1
REPORTED_METRIC: %Inh (%)
// note: answer is a bare numeric in %

The compound identified as `CCC(=O)c1c(-c2ccccc2)c2cc(Cl)ccc2c(=O)n1Cc1cc(S(C)(=O)=O)n(CC(F)F)n1` registered its %Inh at 0

The compound identified as `Cc1nc(N(C)[C@H]2CN(C(=O)CC#N)CC[C@H]2C)c2cc[nH]c2n1` registered its %Inh at 0

The compound identified as `CCC(=O)c1c(-c2ccccc2)c2cc(Cl)ccc2c(=O)n1Cc1ccc(C(=O)O)cc1` registered its %Inh at 0

The compound identified as `COc1cc2nccc(Nc3ccc(OCc4ccc(NC(C)=O)cc4)cc3)c2cc1OC.Cl` registered its %Inh at 34

The compound identified as `O=C(Nc1n[nH]c2cc(-c3ccccc3F)ccc12)C1CC1` registered its %Inh at 0

The compound identified as `COc1cc2ncn(-c3cc(OCc4ccncc4)c(C(N)=O)s3)c2cc1OC` registered its %Inh at 0

The compound identified as `OCCCNc1nccc(-c2c(-c3cccc(C(F)(F)F)c3)nn3cc(C(F)(F)F)ccc23)n1` registered its %Inh at 29

The compound identified as `COc1cc2ncn(-c3cc(OCCCc4ccccc4)c(C(N)=O)s3)c2cc1OC` registered its %Inh at 0

###

- Test system: PIP5K2B
- TEST_CONTEXT: concentration: 1 μM, replicates: in singlicate; n = 1
# %Inh per record follows
// note: answer is a bare numeric in %

CN1C(=O)C(Nc2ccccc2)=C(c2ccccc2)C1=O	0
CN(C)c1cc(-c2ccc3c(N)n[nH]c3c2)nc(N)n1	0
CC(C)(C)c1ccc(C(=O)Nc2cn3cc(-c4ccccc4)ccc3n2)cc1	6

The compound identified as COc1ccc(CNC(=O)NC2CCN(c3ccnc(Nc4ccc(F)cc4)n3)C2)cc1 (stereo not drawn) registered its %Inh at 20

The compound identified as `Cl.NS(=O)(=O)c1cccc(Nc2cc(-c3ccc(F)cc3)n[nH]2)c1` registered its %Inh at 0

The compound identified as CCS(=O)c1ccc(-c2coc3ccc(-c4nnc(C)o4)cc23)cc1 (stereo not drawn) registered its %Inh at 0

The compound identified as `Cc1c(Cn2c(C)nn3c(=O)cc(N4CCO[C@H](C)C4)nc23)cccc1C(F)(F)F` registered its %Inh at 12

The compound identified as `COc1cc2nccc(Nc3ccc(OCc4ccc(NC(C)=O)cc4)cc3)c2cc1OC.Cl` registered its %Inh at 22

The compound identified as `Nc1ncnc2c1ncn2-c1cccc(F)c1` registered its %Inh at 9
